- assayed-system: TNF-α converting enzyme (TACE) (Homo sapiens, UniProt P78536)
- Sequence (P78536 215-824): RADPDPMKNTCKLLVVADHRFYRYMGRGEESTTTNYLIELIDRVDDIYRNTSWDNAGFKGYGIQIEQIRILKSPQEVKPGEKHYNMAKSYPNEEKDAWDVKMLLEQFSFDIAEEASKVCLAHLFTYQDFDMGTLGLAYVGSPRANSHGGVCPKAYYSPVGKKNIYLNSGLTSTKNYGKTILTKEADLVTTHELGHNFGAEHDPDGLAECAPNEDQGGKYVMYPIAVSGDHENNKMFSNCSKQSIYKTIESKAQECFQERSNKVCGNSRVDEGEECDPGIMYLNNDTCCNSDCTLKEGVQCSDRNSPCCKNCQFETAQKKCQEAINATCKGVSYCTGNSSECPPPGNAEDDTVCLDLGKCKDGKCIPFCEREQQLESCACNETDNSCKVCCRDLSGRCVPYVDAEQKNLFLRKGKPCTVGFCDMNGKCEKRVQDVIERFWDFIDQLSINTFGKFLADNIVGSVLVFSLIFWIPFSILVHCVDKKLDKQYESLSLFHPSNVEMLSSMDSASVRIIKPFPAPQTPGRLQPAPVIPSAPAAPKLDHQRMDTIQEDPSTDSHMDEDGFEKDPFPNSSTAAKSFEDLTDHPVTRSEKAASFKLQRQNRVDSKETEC
- experiment-notes: Test procedure for measuring TACE inhibition (fluorescent peptidyl substrate)
- Assay type: biochemical
- run-parameters: Table 1
endpoint-label: pIC50
One number for each entry, as −log10 of the molar value.

Query :: Tell me reported pIC50 for CC#CCOc1ccc(SC(CCCCNC(=O)CNC(=O)C2c3ccccc3Oc3ccccc32)C(=O)NO)cc1 (centres unmarked) , tested with TNF-α converting enzyme (TACE) (Homo sapiens, UniProt P78536).
Result :: 7.09

State recorded pIC50 for all listed molecules.
1. CC#CCOc1ccc(S(=O)(=O)C(CCCCNC(=O)C(c2ccccc2)c2ccccc2)C(=O)NO)cc1 (centres unmarked)
2. CC#CCOc1ccc(SC(CCCCNC(=O)C2c3ccccc3Oc3ccccc32)C(=O)NO)cc1 (centres unmarked)
3. CC#CCOc1ccc(SC(CCCCNC(=O)CNC(=O)CN2C(=O)c3ccccc3C2=O)C(=O)NO)cc1 (centres unmarked)
4. CC#CCOc1ccc([S+]([O-])C(CCCCNC(=O)CCCc2cccs2)C(=O)NO)cc1 (centres unmarked)
5. CC#CCOc1ccc([S@@+]([O-])[C@@H](CCCCCC)C(=O)NO)cc1
6. CC#CCOc1ccc([S+]([O-])C(CCCCNC(=O)CNC(=O)CN2C(=O)c3ccccc3C2=O)C(=O)NO)cc1 (centres unmarked)
7. CC#CCOc1ccc([S+]([O-])C(CCCCNC(=O)CNC(=O)c2ccccc2CCc2ccccc2)C(=O)NO)cc1 (centres unmarked)

Result ::
[7.23, 7.36, 7.79, 7.58, 7.91, 7.41, 7.66]

// input: 3 molecules below; output: pIC50 for each
1. CC#CCOc1ccc(S(=O)(=O)C(CCCCNC(=O)CNC(=O)C(c2ccccc2)c2ccccc2)C(=O)NO)cc1 (centres unmarked)
2. CC#CCOc1ccc([S+]([O-])C(CCCCNC(=O)CNC(=O)Cc2ccc(Cl)c(Cl)c2)C(=O)NO)cc1 (centres unmarked)
3. CC#CCOc1ccc([S+]([O-])C(CCCCNC(=O)C(c2ccccc2)c2ccccc2)C(=O)NO)cc1 (centres unmarked)

Result ::
1: 7.50; 2: 7.61; 3: 7.70

Please state, for each entry, its recorded pIC50.
1. CC#CCOc1ccc(S(=O)(=O)C(C)(Cc2cccnc2)C(=O)NO)cc1 (centres unmarked)
2. CC#CCOc1ccc([S+]([O-])C(CCCCNC(=O)CNC(=O)CCCc2cccs2)C(=O)NO)cc1 (centres unmarked)
3. CC#CCOc1ccc(S(=O)(=O)C(CCCCNC(=O)CNC(=O)Cc2csc3ccccc23)C(=O)NO)cc1 (centres unmarked)

Result ::
1: 7.80; 2: 7.70; 3: 7.53
